Target system: human TLR7 (Homo sapiens, UniProt Q9NYK1)
Sequence (Q9NYK1 27-1049): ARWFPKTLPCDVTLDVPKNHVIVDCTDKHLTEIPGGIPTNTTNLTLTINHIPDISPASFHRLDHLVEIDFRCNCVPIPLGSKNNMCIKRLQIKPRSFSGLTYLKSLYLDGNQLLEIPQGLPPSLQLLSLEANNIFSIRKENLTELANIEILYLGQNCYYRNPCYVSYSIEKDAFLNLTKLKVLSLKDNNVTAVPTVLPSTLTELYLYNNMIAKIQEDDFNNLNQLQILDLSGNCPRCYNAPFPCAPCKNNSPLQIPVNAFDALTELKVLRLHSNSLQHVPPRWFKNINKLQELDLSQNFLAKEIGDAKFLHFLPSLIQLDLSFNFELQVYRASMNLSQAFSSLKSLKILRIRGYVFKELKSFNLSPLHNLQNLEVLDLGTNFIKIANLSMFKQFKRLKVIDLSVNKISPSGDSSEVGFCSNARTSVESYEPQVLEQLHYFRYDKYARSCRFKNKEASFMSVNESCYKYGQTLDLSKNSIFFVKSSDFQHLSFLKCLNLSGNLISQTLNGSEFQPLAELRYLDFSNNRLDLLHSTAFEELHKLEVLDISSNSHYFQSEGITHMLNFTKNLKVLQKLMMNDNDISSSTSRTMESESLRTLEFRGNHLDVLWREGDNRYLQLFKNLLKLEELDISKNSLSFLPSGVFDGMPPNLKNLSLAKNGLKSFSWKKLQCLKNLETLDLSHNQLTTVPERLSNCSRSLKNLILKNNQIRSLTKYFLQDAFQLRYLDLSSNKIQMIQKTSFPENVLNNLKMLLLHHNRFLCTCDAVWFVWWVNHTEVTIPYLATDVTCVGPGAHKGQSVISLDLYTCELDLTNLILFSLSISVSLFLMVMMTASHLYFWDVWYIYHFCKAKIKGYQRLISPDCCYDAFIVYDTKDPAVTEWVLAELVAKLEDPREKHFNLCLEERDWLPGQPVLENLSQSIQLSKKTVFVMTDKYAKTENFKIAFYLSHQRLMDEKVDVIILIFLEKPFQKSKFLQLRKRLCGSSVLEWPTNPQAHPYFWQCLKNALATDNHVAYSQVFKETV
Protocol summary: TLR7 inhibition reporter assay (HEK-Blue SEAP reporter, gardiquimod stimulation)
Assay context: HEK-Blue cells overexpressing human TLR7, SEAP reporter, gardiquimod 7.5 μM, 22 hour incubation
pIC50: −log10 of the molar value.
Give 1 when the value for pIC50 is at least 8. Give 0 when it is less.

[[record]]
compound = "Cc1cc(-c2[nH]c3ccc(C4CCN(CC(C)C)CC4)cc3c2C(C)C)cn(Cc2ccccc2)c1=O"
cat = 0

[[record]]
compound = "CNC(=O)CN1CCC(c2ccc3[nH]c(-c4cc(C)c(=O)n(C)c4)c(C(C)C)c3c2)CC1"
cat = 1

[[record]]
compound = "Cc1c(-c2[nH]c3ccc(C4CCN(C5CCOCC5)CC4)cc3c2C(C)C)cn(C)c(=O)c1Cl"
cat = 1


Exercise: Please check the record "Cc1cc(-c2[nH]c3ccc(C4CCN(CC(=O)N(C)C)CC4)cc3c2C(C)C)cn(CC(F)(F)F)c1=O" and state if its pIC50 is at or above 8.
Key: 0

Exercise: Please check the record "CC(C)c1c(-c2ccc(=O)n(CC(C)(C)O)c2)[nH]c2ccc(C3CCNCC3)cc12" and state if its pIC50 is at or above 8.
Key: 0

Exercise: Please check the record "CNCCN1CCC(c2ccc3[nH]c(-c4cc(C)c(=O)n(C)c4)c(C(C)C)c3c2)CC1" and state if its pIC50 is at or above 8.
Key: 1

Exercise: Please check the record "Cc1c(-c2[nH]c3ccc(C4CCN(C5CCOCC5)CC4)cc3c2C(C)C)nn(C)c(=O)c1C" and state if its pIC50 is at or above 8.
Key: 0

Exercise: Please check the record Cc1c(-c2[nH]c3ccc(C4CCN(C(C)C(N)=O)CC4)cc3c2C(C)C)cn(C)c(=O)c1Cl (stereo not shown) and state if its pIC50 is at or above 8.
Key: 1

Exercise: Please check the record "Cc1cc(=O)n(C)cc1-c1[nH]c2ccc(C3CCNCC3)cc2c1C(C)C" and state if its pIC50 is at or above 8.
Key: 0

Exercise: Please check the record "Cc1c(-c2[nH]c3ccc(C4CCN(C5COC5)CC4)cc3c2C(C)C)cn(C)c(=O)c1C" and state if its pIC50 is at or above 8.
Key: 0

Exercise: Please check the record "Cc1cc(-c2[nH]c3ccc(C4CCN([C@H]5COCC[C@@H]5O)CC4)cc3c2C(C)C)cn(C)c1=O" and state if its pIC50 is at or above 8.
Key: 1

---

Reported IC50 by item:
Target system: human TLR7 (Homo sapiens)
Sequence (Q9NYK1 27-1049): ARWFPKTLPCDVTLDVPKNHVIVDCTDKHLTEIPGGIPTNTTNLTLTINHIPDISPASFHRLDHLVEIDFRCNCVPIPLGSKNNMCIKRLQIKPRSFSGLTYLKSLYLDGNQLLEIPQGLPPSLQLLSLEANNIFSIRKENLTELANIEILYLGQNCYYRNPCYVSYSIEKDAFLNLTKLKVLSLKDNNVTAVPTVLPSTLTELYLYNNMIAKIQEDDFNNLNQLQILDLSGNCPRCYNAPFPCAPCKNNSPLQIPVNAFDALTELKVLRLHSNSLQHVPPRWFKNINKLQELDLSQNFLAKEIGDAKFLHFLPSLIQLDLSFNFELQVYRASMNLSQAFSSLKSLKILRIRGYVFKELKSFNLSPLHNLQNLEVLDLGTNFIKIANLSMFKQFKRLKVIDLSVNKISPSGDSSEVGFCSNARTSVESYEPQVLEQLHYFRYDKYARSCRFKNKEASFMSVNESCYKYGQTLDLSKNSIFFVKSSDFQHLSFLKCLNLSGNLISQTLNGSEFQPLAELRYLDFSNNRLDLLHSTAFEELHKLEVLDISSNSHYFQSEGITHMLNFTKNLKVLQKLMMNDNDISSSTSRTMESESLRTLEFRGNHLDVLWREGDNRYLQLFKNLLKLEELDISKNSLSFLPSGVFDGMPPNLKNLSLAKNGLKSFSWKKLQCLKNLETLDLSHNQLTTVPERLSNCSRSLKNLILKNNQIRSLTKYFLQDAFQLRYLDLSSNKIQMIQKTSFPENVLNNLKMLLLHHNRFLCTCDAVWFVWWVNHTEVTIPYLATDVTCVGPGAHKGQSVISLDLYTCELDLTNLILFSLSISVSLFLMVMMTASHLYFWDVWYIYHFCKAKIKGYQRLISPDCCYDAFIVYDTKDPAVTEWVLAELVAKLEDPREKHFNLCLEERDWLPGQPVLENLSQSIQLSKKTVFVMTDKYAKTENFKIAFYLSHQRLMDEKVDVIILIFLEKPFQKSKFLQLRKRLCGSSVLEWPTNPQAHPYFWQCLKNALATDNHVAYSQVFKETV
Protocol summary: TLR7 inhibition reporter assay (HEK-Blue SEAP reporter, gardiquimod stimulation)
Assay context: HEK-Blue cells overexpressing human TLR7, SEAP reporter, gardiquimod 7.5 μM, 22 hour incubation
# unit: nM | format: bare number

# annotated cases, reported IC50 shown
[[record]]
smiles_data = "Cc1cc(-c2[nH]c3ccc(C4CCNCC4)cc3c2C(C)C)cn(CCCO)c1=O"
assay_value = 51.2

[[record]]
smiles_data = "Cc1c(-c2[nH]c3ccc(C4CCN(C(C)C)CC4)cc3c2C(C)C)cn(C)c(=O)c1Cl"
assay_value = 7.2

[[record]]
smiles_data = "CC(C)c1c(-c2cc(-c3ccccc3)c(=O)n(C)c2)[nH]c2ccc(C3CCN(CC(=O)N(C)C)CC3)cc12"
assay_value = 19.8


Exercise: State the recorded IC50 for this entry: "Cc1cc(-c2[nH]c3ccc(C4CCNCC4)cc3c2C(C)C)cn(CC2CC2)c1=O"
Key: 7.1

---

Target system: human TLR8 (Homo sapiens, UniProt Q9NR97)
Sequence (Q9NR97 27-1041): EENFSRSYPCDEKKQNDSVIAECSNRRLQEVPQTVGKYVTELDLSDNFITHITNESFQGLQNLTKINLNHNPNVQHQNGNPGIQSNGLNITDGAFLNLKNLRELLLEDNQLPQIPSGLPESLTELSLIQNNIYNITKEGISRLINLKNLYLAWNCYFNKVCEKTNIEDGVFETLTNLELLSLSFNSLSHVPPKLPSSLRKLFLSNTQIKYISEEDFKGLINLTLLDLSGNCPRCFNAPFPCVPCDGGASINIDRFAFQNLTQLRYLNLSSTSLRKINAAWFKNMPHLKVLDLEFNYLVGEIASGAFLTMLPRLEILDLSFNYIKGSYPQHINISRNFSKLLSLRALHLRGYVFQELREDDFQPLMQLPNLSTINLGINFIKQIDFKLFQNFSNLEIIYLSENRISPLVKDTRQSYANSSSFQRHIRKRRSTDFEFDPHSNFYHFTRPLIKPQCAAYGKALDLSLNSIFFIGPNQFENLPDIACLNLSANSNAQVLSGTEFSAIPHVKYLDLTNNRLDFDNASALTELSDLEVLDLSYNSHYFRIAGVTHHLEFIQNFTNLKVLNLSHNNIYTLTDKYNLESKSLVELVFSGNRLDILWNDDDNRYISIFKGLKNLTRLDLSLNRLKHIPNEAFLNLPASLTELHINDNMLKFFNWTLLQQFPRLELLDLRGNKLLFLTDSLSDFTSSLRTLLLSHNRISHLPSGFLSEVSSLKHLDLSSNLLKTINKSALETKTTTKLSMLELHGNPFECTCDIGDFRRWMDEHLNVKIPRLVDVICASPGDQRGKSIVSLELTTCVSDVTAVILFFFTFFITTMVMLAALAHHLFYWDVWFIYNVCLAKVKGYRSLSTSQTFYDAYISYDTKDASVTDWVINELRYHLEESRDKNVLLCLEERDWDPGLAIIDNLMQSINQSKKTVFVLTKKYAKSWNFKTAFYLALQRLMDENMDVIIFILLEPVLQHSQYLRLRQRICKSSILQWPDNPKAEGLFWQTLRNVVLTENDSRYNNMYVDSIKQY
Protocol summary: TLR8 inhibition reporter assay (HEK-Blue SEAP reporter, R848 stimulation)
Assay context: HEK-Blue cells overexpressing human TLR8, SEAP reporter, R848 15.9 μM, 22 hour incubation
Parameter: pIC50
# reply with the number alone; pIC50 is -log10 of concentration in mol/L

[[record]]
molecule = "CCn1cc(-c2[nH]c3ccc(C4CCNCC4)cc3c2C(C)C)c(C)c(C)c1=O [Example 26]"
assay_value = 8.05

[[record]]
molecule = "CC(C)c1c(-c2ccc(=O)n(C)c2)[nH]c2ccc(C3CCNCC3)cc12 [Example 1]"
assay_value = 7.81

[[record]]
molecule = "Cc1c(-c2[nH]c3ccc(C4CCNCC4)cc3c2C(C)C)cc(Cl)c(=O)n1C [Example 33]"
assay_value = 7.90


Exercise: State the recorded pIC50 for this entry: CC(C)c1c(-c2cc(N)c(=O)n(C)c2)[nH]c2ccc(C3CCNCC3)cc12 [Example 9]
Key: 7.94
